- System: Nakaseomyces glabratus
- methodSummary: Antifungal activity against Candida glabrata ATCC 48435 by NCCLS method
- Type: functional

| moleculeSmiles | MIC80 |
| --- | --- |
| O=C(N/N=C/c1cc(Cl)ccc1O)c1ccccc1 | 0.5 µg/mL |
| O=[N+]([O-])c1ccc(N/N=C/c2ccc(O)cc2O)cc1 | 1 µg/mL |
| O=C(N/N=C/c1ccccc1O)c1ccccc1O | 8 µg/mL |
| O=[N+]([O-])c1ccc(N/N=C/c2cc(Cl)ccc2O)cc1 | 62 µg/mL |
| O=C(N/N=C/c1ccc(O)cc1O)c1ccc([N+](=O)[O-])cc1 | 0.5 µg/mL |

====

- System: Nakaseomyces glabratus
- methodSummary: Antifungal activity against Candida glabrata ATCC 48435 by NCCLS method
- Type: functional
Active and inactive are the calls of the source. No cut-off for these calls is given here.
readout: MIC80

| moleculeSmiles | readout | measured |
| --- | --- | --- |
| O=[N+]([O-])c1ccc(N/N=C/c2cc(Cl)cc(Cl)c2O)cc1 | MIC80 | 62 µg/mL |
| Cc1ccc(C)c(N/N=C/c2ccccc2O)c1 | MIC80 | inactive |
| O=[N+]([O-])c1ccc(N/N=C/c2cc(Br)cc(Br)c2O)cc1 | MIC80 | 62 µg/mL |
| Cc1ccc(O)c(/C=N/NC(=O)c2ccc(O)cc2)c1 | MIC80 | 1 µg/mL |
| O=C(N/N=C/c1ccccc1O)c1ccc(O)cc1 | MIC80 | 4 µg/mL |
| COc1ccc(O)c(/C=N/NC(=O)c2ccc(O)cc2)c1 | MIC80 | 4 µg/mL |
| Oc1c(Cl)cc(Cl)cc1/C=N/Nc1ccccc1 | MIC80 | 125 µg/mL |
| O=C(N/N=C/c1cc(Cl)cc(Cl)c1O)c1ccc([N+](=O)[O-])cc1 | MIC80 | 125 µg/mL |
| O=C(N/N=C/c1cc(Cl)ccc1O)c1ccc(O)cc1 | MIC80 | 62 µg/mL |
| O=C(N/N=C/c1cc(Cl)ccc1O)c1ccccc1O | MIC80 | inactive |
| CC(C)(C)c1cccc(/C=N/NC(=O)c2ccccc2)c1O | MIC80 | inactive |
| Oc1c(Br)cc(Br)cc1/C=N/Nc1ccccc1 | MIC80 | 62 µg/mL |
| CC(C)(C)c1cccc(/C=N/NC(=O)c2ccc([N+](=O)[O-])cc2)c1O | MIC80 | 125 µg/mL |
| C(=N\Nc1ccccc1)/c1ccc(/C=N/Nc2ccccc2)cc1 | MIC80 | 125 µg/mL |
| O=C(N/N=C/c1cc([N+](=O)[O-])ccc1O)c1ccccc1 | MIC80 | 16 µg/mL |
| COc1ccc(O)c(/C=N/NC(=O)c2ccc([N+](=O)[O-])cc2)c1 | MIC80 | 2 µg/mL |
| O=Cc1ccc(/C=N/Nc2ccc([N+](=O)[O-])cc2[N+](=O)[O-])cc1 | MIC80 | inactive |
| O=C(N/N=C/c1cc(Br)ccc1O)c1ccccc1 | MIC80 | 2 µg/mL |
| CC(C)(C)c1cccc(/C=N/Nc2ccc([N+](=O)[O-])cc2)c1O | MIC80 | inactive |
| O=C(N/N=C/c1cc(Br)ccc1O)c1ccccc1O | MIC80 | 62 µg/mL |
| O=[N+]([O-])c1ccc(N/N=C/c2cccc(Br)c2O)cc1 | MIC80 | inactive |
| N/N=C/c1ccc(O)cc1O | MIC80 | 31 µg/mL |
| Cc1ccc(S(=O)(=O)N/N=C/c2ccccc2O)cc1 | MIC80 | inactive |
| O=C(N/N=C/c1cc([N+](=O)[O-])ccc1O)c1ccc([N+](=O)[O-])cc1 | MIC80 | 16 µg/mL |

====

- Tested on: Nakaseomyces glabratus
- methodSummary: Antifungal activity against Candida glabrata ATCC 48435 by NCCLS method
- Type: functional

| compound | MIC80 |
| --- | --- |
| O=[N+]([O-])c1ccc(N/N=C/c2ccccc2O)cc1 | 4 µg/mL |
| O=[N+]([O-])c1cc(/C=N/Nc2ccccc2)c(O)c([N+](=O)[O-])c1 | 4 µg/mL |
| O=C(N/N=C/c1cc(Br)cc(Br)c1O)c1ccc([N+](=O)[O-])cc1 | 125 µg/mL |
| Oc1ccc(Br)cc1/C=N/Nc1ccccc1 | 31 µg/mL |
| O=C(N/N=C/c1ccccc1O)c1ccccc1 [SALICYLALDEHYDE BENZOYL HYDRAZONE] | 1 µg/mL |
| COc1ccc(O)c(/C=N/NC(=O)c2ccccc2)c1 | 0.5 µg/mL |

====

- System: Nakaseomyces glabratus
- methodSummary: Antifungal activity against Candida glabrata ATCC 48435 by NCCLS method
- Type: functional
The source made the active and inactive calls. No cut-off for these calls is given here.

| moleculeSmiles | target | MIC80 |
| --- | --- | --- |
| O=C(N/N=C/c1cc(Br)ccc1O)c1ccc([N+](=O)[O-])cc1 | Nakaseomyces glabratus | 2 µg/mL |
| O=[N+]([O-])c1ccc(N/N=C/c2cc(Br)ccc2O)cc1 | Nakaseomyces glabratus | inactive |
| Cc1ccc(O)c(/C=N/NC(=O)c2ccccc2)c1 | Nakaseomyces glabratus | 1 µg/mL |
| O=C(N/N=C/c1cc(Cl)cc(Cl)c1O)c1ccccc1 | Nakaseomyces glabratus | 16 µg/mL |
| Oc1ccccc1/C=N/N=C/c1ccccc1O | Nakaseomyces glabratus | inactive |
| O=S(=O)(N/N=C/c1ccccc1O)c1ccccc1 | Nakaseomyces glabratus | 125 µg/mL |
| Oc1ccc(/C=N/Nc2ccccc2)c(O)c1 | Nakaseomyces glabratus | 2 µg/mL |
| N/N=C/c1cc(Cl)cc(Cl)c1O | Nakaseomyces glabratus | 62 µg/mL |
| Cc1ccc(O)c(/C=N/Nc2ccccc2)c1 | Nakaseomyces glabratus | 8 µg/mL |
| CC(C)(C)c1cccc(/C=N/Nc2ccccc2)c1O | Nakaseomyces glabratus | inactive |
| N/N=C/c1cc(Br)ccc1O | Nakaseomyces glabratus | 62 µg/mL |
| Oc1ccc(Cl)cc1/C=N/Nc1ccccc1 | Nakaseomyces glabratus | 31 µg/mL |
| O=C(N/N=C/c1cccc(Br)c1O)c1ccccc1 | Nakaseomyces glabratus | 2 µg/mL |

====

- Test system: Nakaseomyces glabratus
- methodSummary: Antifungal activity against Candida glabrata ATCC 48435 by NCCLS method
- Type: functional
The source made the active and inactive calls. The calls are words filed in the database; no cut-off is given here.
readout: MIC80

| moleculeSmiles | measured |
| --- | --- |
| Cc1ccc(O)c(/C=N/NC(=O)c2ccccc2O)c1 | inactive |
| O=C(N/N=C/c1cc(Br)cc(Br)c1O)c1ccccc1 | 31 µg/mL |
| O=C(N/N=C/c1cc(Br)ccc1O)c1ccc(O)cc1 | 62 µg/mL |
| Cc1ccc(O)c(/C=N/NC(=O)c2ccc([N+](=O)[O-])cc2)c1 | 0.125 µg/mL |
| O=C(N/N=C/c1cc(Cl)ccc1O)c1ccc([N+](=O)[O-])cc1 | 62 µg/mL |
| COc1ccc(O)c(/C=N/NC(=O)c2ccccc2O)c1 | 16 µg/mL |
| Oc1c(Br)cccc1/C=N/Nc1ccccc1 | 16 µg/mL |
| O=C(N/N=C/c1ccc(O)cc1O)c1ccccc1 | 1 µg/mL |
| CC(C)(C)c1cccc(/C=N/N)c1O | 62 µg/mL |
| Cc1ccc(O)c(/C=N/Nc2ccc([N+](=O)[O-])cc2)c1 | inactive |
| Oc1ccccc1/C=N/Nc1ccccc1 | 16 µg/mL |
| O=[N+]([O-])c1ccc(O)c(/C=N/Nc2ccccc2)c1 | 16 µg/mL |

====

- Test system: Nakaseomyces glabratus
- methodSummary: Antifungal activity against Candida glabrata ATCC 48435 by NCCLS method
- Assay type: functional
Activity calls are given as the source filed them. The calls are words filed in the database; no cut-off is given here.
readout: MIC80

| moleculeSmiles | target | measured |
| --- | --- | --- |
| N/N=C/c1cc([N+](=O)[O-])ccc1O | Nakaseomyces glabratus | 31 µg/mL |
| O=[N+]([O-])c1ccc(N/N=C/c2ccccc2O)c([N+](=O)[O-])c1 | Nakaseomyces glabratus | inactive |
| N/N=C/c1cc(Cl)ccc1O | Nakaseomyces glabratus | 31 µg/mL |
| O=[N+]([O-])c1ccc(N/N=C/c2cc([N+](=O)[O-])ccc2O)cc1 | Nakaseomyces glabratus | 62 µg/mL |
| N/N=C/c1cc(Br)cc(Br)c1O | Nakaseomyces glabratus | 8 µg/mL |
| CC(C)(C)c1ccc(C(=O)N/N=C/c2ccccc2O)cc1 | Nakaseomyces glabratus | 125 µg/mL |
| O=C(N/N=C/c1cccc(Br)c1O)c1ccc([N+](=O)[O-])cc1 | Nakaseomyces glabratus | 31 µg/mL |
| O=C(N/N=C/c1ccccc1O)c1ccc([N+](=O)[O-])cc1 | Nakaseomyces glabratus | 0.5 µg/mL |
| COc1ccc(O)c(/C=N/Nc2ccccc2)c1 | Nakaseomyces glabratus | 31 µg/mL |
| N/N=C/c1ccccc1O | Nakaseomyces glabratus | 4 µg/mL |
| O=C(N/N=C/c1ccc(/C=N/NC(=O)c2ccccc2)cc1)c1ccccc1 | Nakaseomyces glabratus | inactive |
| O=[N+]([O-])c1ccc(N/N=C/c2ccc(O)cc2O)c([N+](=O)[O-])c1 | Nakaseomyces glabratus | inactive |
